system: iBMDM (immortalised mouse bone-marrow-derived macrophages), LPS-stimulated; assay: mitochondrial superoxide (MitoSOX fluorescence) fold increase over unstimulated control; higher = more LPS-induced mitochondrial ROS (less inhibition); conditions: inhibitor concentration: 500 nM; LPS: 100 ng/ml; time after LPS: 1 h

# Molecule, Study target, mitochondrial superoxide
rows = [
    ("Cc1cc(C(C)Nc2ccccc2)c2nc(N3CCOCC3)cc(=O)n2c1 (stereo not drawn)", "iBMDM (immortalised mouse bone-marrow-derived macrophages), LPS-stimulated", 1.51),
    ("Cc1ccccc1CN1C2=NCCN2C(=O)C2=C1CCN(Cc1ccccc1)C2", "iBMDM (immortalised mouse bone-marrow-derived macrophages), LPS-stimulated", 1.16),
    ("C[C@]1(O)C[C@@H](c2nc(-c3ccc4ccc(-c5ccccc5)nc4c3)c3c(N)nccn32)C1", "iBMDM (immortalised mouse bone-marrow-derived macrophages), LPS-stimulated", 1.45),
    ("COc1ccc(CNC(=O)Nc2ncc([N+](=O)[O-])s2)cc1", "iBMDM (immortalised mouse bone-marrow-derived macrophages), LPS-stimulated", 1.47),
    ("Cn1c(=O)n(-c2ccc(C(C)(C)C#N)cc2)c2c3cc(-c4cnc5ccccc5c4)ccc3ncc21", "iBMDM (immortalised mouse bone-marrow-derived macrophages), LPS-stimulated", 1.47),
    ("O=c1c(O)c(-c2ccc(O)c(O)c2)oc2cc(O)cc(O)c12", "iBMDM (immortalised mouse bone-marrow-derived macrophages), LPS-stimulated", 1.31),
    ("COc1cc2ncc(-c3ccccc3)nc2cc1OC", "iBMDM (immortalised mouse bone-marrow-derived macrophages), LPS-stimulated", 1.47),
    ("Cc1cc(Nc2cc(N3CCN(C)CC3)nc(Sc3ccc(NC(=O)C4CC4)cc3)n2)n[nH]1", "iBMDM (immortalised mouse bone-marrow-derived macrophages), LPS-stimulated", 1.55),
]

----------
test system: iBMDM (immortalised mouse bone-marrow-derived macrophages), LPS-stimulated; test: mitochondrial superoxide (MitoSOX fluorescence) fold increase over unstimulated control; higher = more LPS-induced mitochondrial ROS (less inhibition); conditions: inhibitor concentration: 500 nM; LPS: 100 ng/ml; time after LPS: 4 h
Measurement label: mitochondrial superoxide

# Cpd smiles, Quantitative readout
rows = [
    ("CN1CCN(c2cccc(Nc3nc4c(-c5ccc(S(C)(=O)=O)cc5)cccn4n3)c2)CC1", 1.65),
    ("COc1cc2ncc(-c3ccccc3)nc2cc1OC", 1.58),
    ("NC(=O)c1ccc(N(C(N)=O)c2c(F)cccc2F)nc1-c1ccc(F)cc1F", 1.33),
    ("Cc1cc(Nc2cc(N3CCN(C)CC3)nc(/C=C/c3ccccc3)n2)n[nH]1", 1.32),
    ("COc1cc2nccc(Oc3ccc(NC(=O)C4(C(=O)Nc5ccc(F)cc5)CC4)cc3)c2cc1OC", 1.51),
    ("COc1ccc(-c2ccc3ncc4c(c3c2)n(-c2ccc(N3CCNCC3)c(C(F)(F)F)c2)c(=O)n4C)cn1", 1.49),
    ("N#Cc1ccc2[nH]c(O)c(-c3ccc(CN4CCOCC4)cn3)c2c1", 1.38),
    ("C#Cc1cccc(Nc2ncnc3cc4c(cc23)OCCOCCOCCO4)c1", 1.31),
    ("CS(=O)(=O)N1CCc2c(-c3cnc(N)nc3)nc(N3CCOCC3)nc21", 1.55),
    ("O=c1cc(N2CCOCC2)oc2c(-c3cccc4c3sc3ccccc34)cccc12", 1.55),
    ("Cc1ccc(C(=O)Nc2ccc(CN3CCN(C)CC3)c(C(F)(F)F)c2)cc1C#Cc1cnc2[nH]ncc2c1", 1.75),
    ("COCCOc1ccc2c(c1)ncn2-c1ccc2cccc(N3CCC(N)CC3)c2n1", 1.3),
    ("CC(C)(C)c1cc(/C=C(\\C#N)C(N)=S)cc(C(C)(C)C)c1O", 1.61),
    ("COc1ccc(-c2ccc3c(N4CCOCC4)nc(N4C[C@@H](C)O[C@@H](C)C4)nc3n2)cc1CO", 1.32),
    ("O=C1NC(=O)C(c2ccccc2[N+](=O)[O-])=C1Nc1ccc(O)c(Cl)c1", 1.63),
    ("CNC(=O)c1cc(Oc2ccc(NC(=O)Nc3ccc(Cl)c(C(F)(F)F)c3)c(F)c2)ccn1", 1.71),
    ("COc1cc2c(N3CCN(C(=O)Nc4ccc(OC(C)C)cc4)CC3)ncnc2cc1OCCCN1CCCCC1", 1.72),
    ("N#CCNC(=O)c1ccc(-c2ccnc(Nc3ccc(N4CCOCC4)cc3)n2)cc1", 1.27),
    ("COc1cc(N2CCC(N)CC2)ccc1Nc1ncc(Cl)c(-c2c[nH]c3ccccc23)n1", 1.36),
]

----------
Entries and their mitochondrial superoxide
system: iBMDM (immortalised mouse bone-marrow-derived macrophages), LPS-stimulated; assay: mitochondrial superoxide (MitoSOX fluorescence) fold increase over unstimulated control; higher = more LPS-induced mitochondrial ROS (less inhibition); settings: inhibitor concentration: 500 nM; LPS: 100 ng/ml; time after LPS: 4 h
Where a name gives a salt, the structure may show the parent alone.
Measurement label: mitochondrial superoxide

# Compound, Study target, Quantitative readout
records = [
    ("Cn1cnc2c(F)c(Nc3ccc(Br)cc3F)c(C(=O)NOCCO)cc21", "iBMDM (immortalised mouse bone-marrow-derived macrophages), LPS-stimulated", 1.29),
    ("CCN1C(=CC(C)=O)Sc2ccc(OC)cc21", "iBMDM (immortalised mouse bone-marrow-derived macrophages), LPS-stimulated", 1.63),
    ("NC(=O)c1ncn([C@@H]2O[C@H](CO)[C@@H](O)[C@H]2O)c1N", "iBMDM (immortalised mouse bone-marrow-derived macrophages), LPS-stimulated", 1.36),
    ("CN1CC[C@H](c2c(O)cc(O)c3c(=O)cc(-c4ccccc4Cl)oc23)[C@H](O)C1 [Flavopiridol HCl]", "iBMDM (immortalised mouse bone-marrow-derived macrophages), LPS-stimulated", 1.71),
    ("Cn1cc(C2=C(c3ccc(Cl)cc3Cl)C(=O)NC2=O)c2ccccc21", "iBMDM (immortalised mouse bone-marrow-derived macrophages), LPS-stimulated", 1.68),
    ("Cc1cc(C)c(/C=C2\\C(=O)Nc3ccccc32)[nH]1 [Semaxanib (SU5416)]", "iBMDM (immortalised mouse bone-marrow-derived macrophages), LPS-stimulated", 1.3),
    ("CN(C)Cc1cccc(N=C(c2ccccc2)c2c(O)[nH]c3cc(C(N)=O)ccc23)c1", "iBMDM (immortalised mouse bone-marrow-derived macrophages), LPS-stimulated", 1.26),
    ("CC(C)(C)NS(=O)(=O)c1cncc(-c2cc(F)c3nc(N)nn3c2)c1", "iBMDM (immortalised mouse bone-marrow-derived macrophages), LPS-stimulated", 1.31),
    ("NC(=O)Nc1sc(-c2ccc(F)cc2)cc1C(N)=O", "iBMDM (immortalised mouse bone-marrow-derived macrophages), LPS-stimulated", 1.33),
    ("Clc1ccc(Nc2nnc(Cc3ccncc3)c3ccccc23)cc1 [Vatalanib (PTK787) 2HCl]", "iBMDM (immortalised mouse bone-marrow-derived macrophages), LPS-stimulated", 1.53),
    ("CCn1cc(-c2ccnc3[nH]c(-c4cccc(CN(C)C)c4)cc23)c(-c2ccc(NC(=O)N(C)C)cc2)n1", "iBMDM (immortalised mouse bone-marrow-derived macrophages), LPS-stimulated", 1.71),
    ("CC(C)(C)c1nc(-c2cccc(NS(=O)(=O)c3c(F)cccc3F)c2F)c(-c2ccnc(N)n2)s1", "iBMDM (immortalised mouse bone-marrow-derived macrophages), LPS-stimulated", 1.73),
    ("COc1cc2/c(=N/c3ccc(Br)cc3F)nc[nH]c2cc1OCC1CCN(C)CC1 [Vandetanib (ZD6474)]", "iBMDM (immortalised mouse bone-marrow-derived macrophages), LPS-stimulated", 1.7),
    ("CN1CCN(c2ccc3nc(-c4c(N)c5c(F)cccc5[nH]c4=O)[nH]c3c2)CC1 [Dovitinib (TKI-258) Dilactic Acid]", "iBMDM (immortalised mouse bone-marrow-derived macrophages), LPS-stimulated", 1.51),
    ("CCC[C@H](NC(=O)/C(C#N)=C/c1cccc(Br)n1)c1ccccc1 [Degrasyn (WP1130)]", "iBMDM (immortalised mouse bone-marrow-derived macrophages), LPS-stimulated", 1.48),
    ("O=C(O)[C@]1(Cc2cccc(Nc3nccs3)n2)CC[C@@H](Oc2cccc(Cl)c2F)CC1", "iBMDM (immortalised mouse bone-marrow-derived macrophages), LPS-stimulated", 1.51),
    ("C[C@@H](Oc1cc(-n2cnc3ccc(CN4CCN(C)CC4)cc32)sc1C(N)=O)c1ccccc1C(F)(F)F", "iBMDM (immortalised mouse bone-marrow-derived macrophages), LPS-stimulated", 1.35),
    ("O=C(Nc1cccc(Cl)c1)Nc1ncc(CCNc2ncnc3ccsc23)s1 [SNS-314 Mesylate]", "iBMDM (immortalised mouse bone-marrow-derived macrophages), LPS-stimulated", 1.42),
]

----------
test system: iBMDM (immortalised mouse bone-marrow-derived macrophages), LPS-stimulated; assay: mitochondrial superoxide (MitoSOX fluorescence) fold increase over unstimulated control; higher = more LPS-induced mitochondrial ROS (less inhibition); details: inhibitor concentration: 500 nM; LPS: 100 ng/ml; time after LPS: 4 h

# Compound, mitochondrial superoxide
data = [
    ("CCCNC(=O)Nc1ccc(Oc2ncnc3cc(OC)c(OC)cc23)cc1Cl", 1.22),
    ("CC1(COc2ccc3c(c2)ncn3-c2ccc3cccc(N4CCC(N)CC4)c3n2)COC1", 1.66),
    ("CCn1c(N)c(C(=O)NC)c(=O)c2ccc(C#CC(C)(O)COC)nc21 (configuration not stated)", 1.33),
    ("CC1=C(C(=O)Nc2cc3cn[nH]c3cc2F)C(c2ccc(C(F)(F)F)cc2)CC(=O)N1 (configuration not stated)", 1.35),
    ("CO[C@H]1C[C@@H]2CC[C@@H](C)[C@@](O)(O2)C(=O)C(=O)N2CCCC[C@H]2C(=O)O[C@H]([C@H](C)C[C@@H]2CC[C@@H](OC(=O)C(C)(CO)CO)[C@H](OC)C2)CC(=O)[C@H](C)/C=C(\\C)[C@@H](O)[C@@H](OC)C(=O)[C@H](C)C[C@H](C)/C=C/C=C/C=C/1C", 1.75),
    ("CCOc1cc2ncc(C#N)c(Nc3ccc(F)c(Cl)c3)c2cc1NC(=O)/C=C/CN(C)C [Pelitinib (EKB-569)]", 1.32),
    ("COC(=O)c1ccc2c(C(=Nc3ccc(N(C)C(=O)CN4CCN(C)CC4)cc3)c3ccccc3)c(O)[nH]c2c1 [Nintedanib (BIBF 1120)]", 1.72),
]
